experiment: small-molecule microarray binders of probe aXIP, primary screen, biochemical, NeuroSMM set, 635/667 nm fluorescence (AID 1119); conditions: higher = more signal, called active from +8 up or from −8 down;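 note: probe is the protein aXip251-270 applied at 1 µg/mL to compound-printed slides; binding of probe to printed compounds measured as 667 nm fluorescence plus signal to noise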
Calls of active or inactive are those of the source.
parameter: composite Z-score

# compound, measured
rows = [
    ("COC(=O)[C@H](C)NC(=O)CCC1CC(OC(=O)NCc2cccc3ccccc23)CC2(CCCC(COC(=O)NCCC(C)C)O2)O1 (some centres undefined)", "0.559 (inactive)"),
    ("CC(C)CON=C1[C@H]2CCn3c(=O)n(C)c(=O)n3[C@H]2[C@H](O)[C@@H]2O[C@H]12", "-0.483 (inactive)"),
    ("C[C@@H]1CC[C@H]2C(=O)N3[C@@H](CC[C@@H](C)[C@@H]3c3ccc(Br)cc3)C(=O)N2[C@H]1c1ccc(Br)cc1", "-0.119 (inactive)"),
    ("O=C1[C@H]2[C@H]3[C@H](O)[C@H](O)CC(=NOC[C@@H](O)COCc4ccco4)[C@@H]3CC[C@H]2C(=O)N1Cc1ccccc1", "-0.0662 (inactive)"),
    ("COC(=O)CC=C[C@@H](C)[C@@H](C=NOC[C@@H](C)[C@H](OCc1ccccc1)C(C)C)NS(=O)(=O)c1ccc(C)cc1", "0.216 (inactive)"),
    ("COc1ccc(COC(=O)NN=C2C[C@@H](O)[C@@H](O)[C@@H]3[C@@H]4C(=O)N(C[C@@H]5CCCO5)C(=O)[C@@H]4CC[C@H]23)cc1", "-0.713 (inactive)"),
    ("CCN1C(=O)[C@H]2[C@H]3[C@H](O)[C@H](O)CC(=NO[C@H](C)c4cn([C@@H]5COC[C@H]5O)nn4)[C@@H]3CC[C@H]2C1=O", "-0.115 (inactive)"),
    ("CC(CCC(=O)OC[C@H]1O[C@H](C#Cc2ccccc2)C=C[C@@H]1Oc1ccc(C)cc1)=NOC(C)CN1CCCCc2nc(C)c(C)cc21 (some centres undefined)", "1.48 (inactive)"),
    ("O=C1C[C@@H](O)[C@@H](O)[C@@H]2[C@@H]3C(=O)N(Cc4ccccc4)C(=O)[C@@H]3CC[C@H]12", "-0.082 (inactive)"),
    ("CO[C@H]1C[C@@H]2C[C@H](O)CC(CC(=O)O[C@@H](C=CCC(C)C)C[C@@H]3CC[C@H](C)[C@@H](C1)O3)O2", "-0.349 (inactive)"),
    ("Cc1ccc(S(=O)(=O)N[C@@H]2COC(=O)CC=C[C@@H](C)[C@H](NS(=O)(=O)c3ccc(C)cc3)COC(=O)[C@H](C)NC(=O)CC=C[C@H]2C)cc1", "-0.211 (inactive)"),
    ("O=C1CCCC=C1C(O)c1ccc([N+](=O)[O-])cc1 (centres undefined)", "-0.163 (inactive)"),
    ("COc1ccc(COC(=O)NN=C2C[C@@H](O)[C@@H](O)[C@@H]3[C@@H]4C(=O)N(c5cccc(Oc6ccccc6)c5)C(=O)[C@@H]4CC[C@H]23)cc1", "-0.626 (inactive)"),
    ("CC(C)[C@@H](OCc1ccccc1)[C@H](C)CON=C1[C@H]2CCn3c(=O)n(-c4ccccc4)c(=O)n3[C@H]2[C@H](O)[C@@H]2O[C@H]12", "0.382 (inactive)"),
]

----------
experiment: S. cerevisiae RM11-1a growth modifiers, primary screen, strain RM11-1a, OD600, basal, 24 h (AID 1177); conditions: OD600, 24 h, higher = more signal, called active from +8 up or from −8 down;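 note: cultures grown under basal conditions with no added stressor; test concentration not given here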
Quick reference: z-score of the listed items.

# molecule, z-score
records = [
    ("CCOC(=O)[C@H](Cc1ccccc1)NC(=O)CCC1CC(OC(=O)NCc2cccc3ccccc23)CC2(CCCC(COC(=O)NCc3ccc4c(c3)OCO4)O2)O1 (stereo not given in full)", -0.131),
    ("CCOC(=O)[C@H](Cc1ccccc1)NC(=O)CCC1CC(OC(=O)NCc2ccc3c(c2)OCO3)CC2(CCCC(COC(=O)NCCCN3CCCC3=O)O2)O1 (stereo not given in full)", -0.012),
    ("CCOC(=O)NN=C1C[C@@H](O)[C@@H](O)[C@@H]2[C@@H]3C(=O)N(C[C@@H]4CCCO4)C(=O)[C@@H]3CC[C@H]12", -0.396),
    ("O=C(NCCC[N+]1=CC=NC1c1ccccc1)N1CCCc2nc(-c3ccc(Br)cc3)ccc21 (stereo not given)", 1.6),
    ("Cc1cc(C)c(-c2cc([C@H](C)ON=C[C@@H](C)[C@H](OCc3ccccc3)C(C)C)on2)c(C)c1", 0.255),
    ("CO[C@@H](C1CCCCC1)[C@@H](C)[C@H](OCc1cccc(Br)c1)[C@@H](C)CO", -0.0839),
    ("COc1cccc([C@H]2Oc3ccc(OC)cc3C(=NO[C@@H](C)c3cc(-c4c(C)cc(C)cc4C)no3)[C@@H]2O)c1", 1.96),
    ("O=C1[C@H]2CCn3c(=O)n(Cc4cc5c(cc4Cl)OCO5)c(=O)n3[C@H]2[C@H](O)[C@@H]2O[C@H]12", 0.533),
    ("C[C@@H]1CC[C@H]2C(=O)O[C@@H](COc3ccc(C(C)(C)C)cc3)CN2[C@H]1c1ccc(Br)cc1", -0.0191),
    ("CCOC(=O)CCN1C(=O)[C@H]2[C@H]3[C@H](O)[C@H](O)CC(=NNC(=O)OCc4ccccc4)[C@H]3CC[C@H]2C1=O", -1.26),
    ("C#CCCCON=C1[C@H]2CCn3c(=O)n([C@@H](CC)c4ccccc4)c(=O)n3[C@H]2[C@H](O)[C@@H]2O[C@H]12", -0.771),
    ("O=C1[C@H]2[C@H]3[C@H](O)[C@H](O)CC(=NOC[C@@H](O)COCc4ccco4)[C@@H]3CC[C@H]2C(=O)N1Cc1ccccc1", -0.426),
    ("CC(=O)OC[C@H]1O[C@H](C#CCCc2ccccc2)C=C[C@@H]1OC(C)=O", 0.702),
    ("CCOC(=O)CCN1C(=O)[C@H]2[C@H]3[C@H](O)[C@H](O)CC(=O)[C@@H]3CC[C@H]2C1=O", -0.405),
    ("O=C1[C@H]2[C@H]3[C@H](O)[C@H](O)CC(=NOC[C@@H](O)COCc4ccco4)[C@@H]3CC[C@H]2C(=O)N1c1cccc(Oc2ccccc2)c1", -1),
]

----------
Quick reference: composite z-score of the listed items.
molecular target: Albumin (Bos taurus) (UniProt P02769); assay: bovine serum albumin binders on microarray, profiling panel, artefact control for SMM control protein annotation, biochemical, small-molecule microarray, Alexa647 label, 635/667 nm fluorescence (AID 1118); conditions: BSA-A647 binding, fluorescence 635 nm, higher = more signal;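 note: score merges 667 nm emission intensity and signal-to-noise per printed compound spot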
Sequence (P02769 whole entry, looked up): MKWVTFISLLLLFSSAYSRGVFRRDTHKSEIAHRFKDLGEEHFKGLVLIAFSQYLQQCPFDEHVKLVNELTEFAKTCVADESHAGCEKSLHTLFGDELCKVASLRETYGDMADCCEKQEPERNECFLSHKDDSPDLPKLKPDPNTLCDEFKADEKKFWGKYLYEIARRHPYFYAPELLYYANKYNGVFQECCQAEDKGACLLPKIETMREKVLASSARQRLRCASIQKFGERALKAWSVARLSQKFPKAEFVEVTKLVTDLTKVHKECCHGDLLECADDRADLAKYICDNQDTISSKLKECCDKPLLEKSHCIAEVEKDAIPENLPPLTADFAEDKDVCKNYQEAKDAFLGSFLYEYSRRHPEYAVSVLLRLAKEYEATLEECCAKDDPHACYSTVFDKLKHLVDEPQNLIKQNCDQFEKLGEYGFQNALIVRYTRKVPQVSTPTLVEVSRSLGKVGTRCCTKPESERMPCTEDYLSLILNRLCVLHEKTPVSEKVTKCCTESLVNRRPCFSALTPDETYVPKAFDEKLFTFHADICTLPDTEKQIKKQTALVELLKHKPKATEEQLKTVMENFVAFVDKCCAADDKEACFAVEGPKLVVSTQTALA

# chem.smiles, composite z-score
measured = [
    ("COC(=O)[C@@H]1CC[C@H](C)[C@@H](c2ccc(Br)cc2)N1", -0.109),
    ("CC(=O)OC[C@H]1O[C@@H](ON=C(C)CCN2CCCCc3nc(C)c(C)cc32)[C@H](OC(C)=O)[C@@H](OC(C)=O)[C@@H]1OC(C)=O", 0.536),
    ("Cc1ccc(S(=O)(=O)N[C@@H]2COC(=O)CC=C[C@@H](C)[C@H](NS(=O)(=O)c3ccc(C)cc3)COC(=O)[C@H](C)NC(=O)CC=C[C@H]2C)cc1", -0.953),
    ("CC(C)(C)N1C(=O)[C@H]2[C@H]3[C@H](O)[C@H](O)CC(=NNC(=O)OCc4ccccc4)[C@H]3CC[C@H]2C1=O", -0.316),
    ("C#CCCCON=C1C[C@@H](O)[C@@H](O)[C@@H]2[C@@H]3C(=O)N(C[C@@H]4CCCO4)C(=O)[C@@H]3CC[C@H]12", 0.541),
    ("C=CC[C@@H]1C=C[C@H](ON=C2C[C@@H](O)[C@@H](O)[C@@H]3[C@@H]4C(=O)N(CC)C(=O)[C@@H]4CC[C@@H]23)[C@@H](CO)O1", -0.873),
    ("CO[C@@H]1C=CCC(=O)N[C@@H](C)C(=O)OC[C@@H](NS(=O)(=O)c2ccc(C)cc2)[C@H](C)C=CCC(=O)OC[C@H]1C", -1.19),
]

----------
target: NADPH oxidase 5 (Homo sapiens) (UniProt Q96PH1); assay: NOX5-dependent H2O2 signal modulators, primary screen, NOX inhibitor project, cell-based, HEK293-NOX5, Amplex Red fluorescence (AID 1161); settings: HEK293-NOX5, ionomycin, 45 min, higher = more signal
Sequence (Q96PH1 whole entry, looked up): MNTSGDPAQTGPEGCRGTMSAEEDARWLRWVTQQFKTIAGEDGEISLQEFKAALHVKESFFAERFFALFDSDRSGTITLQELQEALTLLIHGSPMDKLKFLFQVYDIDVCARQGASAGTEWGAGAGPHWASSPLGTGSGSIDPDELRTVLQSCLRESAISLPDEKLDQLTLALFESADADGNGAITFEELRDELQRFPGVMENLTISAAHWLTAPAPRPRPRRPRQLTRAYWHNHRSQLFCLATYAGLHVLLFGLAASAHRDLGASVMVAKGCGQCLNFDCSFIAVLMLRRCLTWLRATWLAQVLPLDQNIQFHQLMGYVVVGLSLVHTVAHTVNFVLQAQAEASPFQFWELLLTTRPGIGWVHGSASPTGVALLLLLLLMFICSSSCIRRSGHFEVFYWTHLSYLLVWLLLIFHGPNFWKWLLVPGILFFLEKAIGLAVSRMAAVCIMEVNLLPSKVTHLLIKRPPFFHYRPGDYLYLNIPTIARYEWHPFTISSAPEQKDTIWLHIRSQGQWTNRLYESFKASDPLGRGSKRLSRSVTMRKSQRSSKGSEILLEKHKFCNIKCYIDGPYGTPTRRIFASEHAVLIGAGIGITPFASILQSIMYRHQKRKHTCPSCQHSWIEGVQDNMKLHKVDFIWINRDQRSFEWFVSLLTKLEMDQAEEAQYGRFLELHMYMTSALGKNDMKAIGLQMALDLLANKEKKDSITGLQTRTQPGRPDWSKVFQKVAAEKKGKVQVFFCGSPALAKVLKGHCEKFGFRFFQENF
# z-score >= 0.04 gives criterion met, anything below gives criterion not met

# compound, discrete.label
measured = [
    ("COc1ccc(O[C@H]2C=C[C@@H](c3ccccc3)O[C@@H]2CON=C2c3cc(OC)ccc3O[C@H](c3cccc(OC)c3)[C@H]2O)cc1", "criterion met"),
    ("C#CCCCON=C1[C@H]2CCn3c(=O)n([C@@H](CC)c4ccccc4)c(=O)n3[C@H]2[C@H](O)[C@@H]2O[C@H]12", "criterion met"),
    ("COC(=O)[C@H](Cc1ccccc1)NC(=O)[C@@H](C)CO", "criterion not met"),
    ("C#CCCCON=C1C[C@@H](O)[C@@H](O)[C@@H]2[C@@H]3C(=O)N(C4CCCCC4)C(=O)[C@@H]3CC[C@@H]12", "criterion not met"),
    ("CC(C)(C)N1C(=O)[C@H]2[C@H]3[C@H](O)[C@H](O)CC(=NNC(=O)OCc4ccccc4)[C@@H]3CC[C@H]2C1=O", "criterion not met"),
    ("Cc1ccc(C(C)C)n1C(=O)OC(C)(C)C", "criterion met"),
    ("CC(C)=CCCC(C)=CCON=C1C[C@@H](O)[C@@H](O)[C@@H]2[C@@H]3C(=O)N(c4cccc(Oc5ccccc5)c4)C(=O)[C@@H]3CC[C@H]12", "criterion not met"),
    ("O=C1[C@H]2CCn3c(=O)n(Cc4cc5c(cc4Cl)OCO5)c(=O)n3[C@H]2[C@H](O)[C@@H]2O[C@H]12", "criterion met"),
    ("C[C@@H](c1ccccc1)N1C(=O)[C@H]2[C@H]3[C@H](O)[C@H](O)CC(=NNC(=O)OCc4ccccc4)[C@@H]3CC[C@H]2C1=O", "criterion not met"),
    ("Cc1ccc2[nH]c3nc(CCCn4ccnc4-c4ccccc4)nnc3c2c1", "criterion not met"),
    ("O=C(NN=C1C[C@@H](O)[C@@H](O)[C@@H]2[C@@H]3C(=O)N(Cc4ccc5c(c4)OCO5)C(=O)[C@@H]3CC[C@@H]12)OCc1ccccc1", "criterion not met"),
    ("C#CCCCON=C1C[C@@H](O)[C@@H](O)[C@@H]2[C@@H]3C(=O)N([C@@H](C)c4ccccc4)C(=O)[C@@H]3CC[C@@H]12", "criterion not met"),
    ("CC(C)=NO[C@H](C)c1cn([C@@H]2COC[C@H]2O)nn1", "criterion met"),
    ("COC(=O)[C@H](C)NC(=O)CCC1CC(OC(=O)NCCc2ccc(F)cc2)CC2(CCCC(COC(=O)NCCc3ccccc3OC)O2)O1 (stereo partly specified)", "criterion not met"),
    ("CO[C@H]1COC(=O)[C@H](CCSC)NC(=O)CC=C[C@@H](C)[C@H](OC)COC(=O)[C@@H](OCc2ccccc2)C=C[C@@H]1C", "criterion not met"),
    ("CCOC(=O)NN=C1C[C@@H](O)[C@@H](O)[C@@H]2[C@@H]3C(=O)N(CC)C(=O)[C@@H]3CC[C@H]12", "criterion met"),
]
